Tested on: normal fibroblasts (WI-38)
test protocol: Cytotoxicity
experimental context: SI = WI-38 IC50/IC50 against cancer cells
Class key for selectivity index (SI) values: lo (below 1), mid (1 to below 2), hi (2 or more)

Example cases with answers are listed next.
compound: N=c1oc2ccccc2cc1C(=O)Nc1nnc(NC(=O)c2ccccc2)s1
classification: mid
//
compound: N#CC(=Cc1ccc(Cl)cc1Cl)C(=O)Nc1nnc(NC(=O)c2ccccc2)s1
classification: mid
//
compound: N#CC(C(=O)Nc1nnc(NC(=O)c2ccccc2)s1)=C1SCCN1c1ccccc1
classification: lo
//
compound: N#Cc1c(Nc2ccccc2)n2nc(NC(=O)c3ccccc3)sc2nc1=O
classification: mid
//
compound: N#CC(=Cc1ccco1)C(=O)Nc1nnc(NC(=O)c2ccccc2)s1
classification: lo
//
compound: COc1cc(C=C(C#N)C(=O)Nc2nnc(NC(=O)c3ccccc3)s2)ccc1O
classification: lo

Req: Form: Item = N#CC(=Cc1ccc(Cl)cc1)C(=O)Nc1nnc(NC(=O)c2ccccc2)s1 ; Class = ?
Resp: hi

Req: Bin? COc1ccc(C=C(C#N)C(=O)Nc2nnc(NC(=O)c3ccccc3)s2)cc1
Resp: hi

Where do these numbers come from? They come from paper PMC10209631.
